Target: full length human TPH1 (Homo sapiens, UniProt P17752)
Construct: To generate the enzyme, full length human TPH1 is cloned into the plasmid pET20b(+); made in house; host or cells: E. coli
Sequence (P17752 whole entry): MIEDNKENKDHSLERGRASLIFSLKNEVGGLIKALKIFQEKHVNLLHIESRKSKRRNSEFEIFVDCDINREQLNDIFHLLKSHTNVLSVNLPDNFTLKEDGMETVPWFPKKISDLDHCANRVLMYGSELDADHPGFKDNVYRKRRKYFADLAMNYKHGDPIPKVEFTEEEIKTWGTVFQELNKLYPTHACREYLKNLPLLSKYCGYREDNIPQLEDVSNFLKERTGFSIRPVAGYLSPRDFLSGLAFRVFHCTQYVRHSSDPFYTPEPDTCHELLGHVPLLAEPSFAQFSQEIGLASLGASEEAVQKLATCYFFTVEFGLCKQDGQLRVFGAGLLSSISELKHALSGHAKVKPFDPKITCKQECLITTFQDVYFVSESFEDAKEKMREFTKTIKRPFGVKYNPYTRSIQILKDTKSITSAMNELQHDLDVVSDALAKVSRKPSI
Experiment: Biochemical in vitro assay using fluorescence readout (TPH1 enzyme activity)
Conditions: Table 1, mean where determined several times
Protocol: Inhibitory activities on tryptophan hydroxylase 1 have been measured for each example compound using the following procedure: Biochemical In Vitro Assay Using Fluorescence Readout To generate the enzyme, full length human TPH1 is cloned into the plasmid pET20b(+) (Novagen) and expressed in E. coli. […] The activity of TPH1 is determined by using a fluorescence assay. […] The amount of 5-hydroxy-L-tryptophan produced during the enzymatic reaction is determined by fluorescence readout. […]
Measure: pIC50
Expect pIC50 as a plain number equal to -log10 of the molar concentration.

Answered cases to consult:
- O=C(COc1ccc(N2CCCS2(=O)=O)nc1Cl)N1CCc2nc3n(c2C1c1ccc(Cl)cc1F)CCCC3 (stereo not shown): 7.77
- Cc1ccc(C2c3c(nc4n3CCCC4)CCN2C(=O)COc2ccc(C(F)(F)F)cc2Cl)c(F)c1F (stereo not shown): 7.06
- CCc1nc(Cl)ncc1OCC(=O)N1CCc2nc3n(c2C1c1ccc(Cl)cc1F)CCS3 (stereo not shown): 6.73

Please find the next compound below.
What does the record list as pIC50 for Cc1cnc(C2c3c(nc4n3CCCC4)CCN2C(=O)COc2ccc(NS(C)(=O)=O)nc2Cl)c(F)c1 (stereo not shown) ?
7.24
